- PROTOCOL_DETAILS: yeast display, Sf9 membrane polyspecificity reagent, FACS + sequencing; frameworks hold sequencing errors
READOUT_TYPE: polyreactivity (PSR sort gate)

{"columns": ["ORDERED_RESIDUES", "RESULT"],
 "data": [
  ["QVQLVESGGGLVQAGGSLRLSCAASGLTFVYYAMGWYRQAPGKERELVATISWDGGSTYYADSVKGRFTISRDNAKNTVYLQLNRLKPEDTAVYYCNKYVFDRYIYETEYDYWGQGTQVTVSS", "high polyreactivity"],
  ["QVQLVESGGGLVQAGGSLPLSCAASGSIFFFNAMGWYRQATGKEREFVAAITSSSGRTYYADSVKGRFTISRDNANNTVYLQMNSLKPEDSAVYFCAAQVPEDTETVDYWGQGTQVTVSS", "low polyreactivity"],
  ["QFQLVESGGGLVQAGGSLRLSCAASGRTFYVNAMGWYRPSPGKERELVAGISFSDGSTYYADSVKGRFTISRDNAKNTVYLQMNSLKPEDTAVYYCATVGAFDIYYGYGYWGQGTQVTVSS", "low polyreactivity"],
  ["QVQLVESGGGLVQAGGSLRLSCAASGLIFDKYAMGWYRQAPGKERELVAAITRSSGTTYYADSVKGRFTISRDNAKNTVYLQMNSLKPEETAVYYCAARFIWGYWGVGSYYWGQATQVTVSS", "low polyreactivity"],
  ["QVQLVESGGGLVQAGGSLRLSCAASGSIIGFYAMGWYRQAPGKERELVARISKRGGITYYADSVKGRFTISRDNAKNTVDLQMNSLKPEDTAVYYCAVDRRVLWYHMDYWGQGTQVTLSS", "high polyreactivity"]
]}

// query # input sequence: QVQLVESGGGLVQAGGSLRLSCAASGMTFAENAMGWYREAPGKERELVAANSASGGSTYYADSVKGRFTISRDNAKNTVYLQMNSLKPEDTAVFYCATRVAFLWPRRDYDYWGQGTQVTVSS ; wanted: its polyreactivity (PSR sort gate)
// result low polyreactivity

// query And the next one, QVQLVESGGGLVQAGGSLRLSCDASGSTLSENVMGWYRQAPGKERELVATISYSGDSTYYADSVKGRFTISRDNAKNTVYLQMNSLKPEDTAVYYCAAGVGWDFAYWGQGTQVTVSS ?
// result low polyreactivity

// query And the next one, QVQLVESGGGLVQAGGSLRLSCAASGFTFNRNAMGWYRQAPGKERELVAAISRGGSTSYADSVKGRFTISRDNAKNTVYLQMNSLKPEDTAVYYCATYFRVYYSQYDYWGQGTQVTVTS ?
// result high polyreactivity

// query And the next one, QVQLVESGGGLVQAGGSLRLSCAPSGATFRRNAMGWYRQAPGKERELVAAITWRGGSTSYADSVKGRFTISRDNAKNTVYLQMNSLKREDTAVYYCAAVKGHSQVLSYGYWGQGTQVTVSS ?
// result low polyreactivity

// query And the next one, QVQLVESGGGLVQAGGSLRLSCAASGITFRYYAMGWYRPAPRKERELVAVISTSGGSTYYADSVKGRFTISRDNAKNTVYLQMNSLKPEDTAVYYCAARYSRSRRYRMDYWGQGTQVTVSS ?
// result high polyreactivity

// query And the next one, QVQLVESGGGLVQAGGSLRLSCAASGLIFGTKAMGCYRQAPGKERELVAAMSGSGGRTYYADSVKARFTISRDNAKNTVYLQMNSLKPEDTAVYYCASRFWRLHVGYGYSGQGTQVTVSS ?
// result high polyreactivity
